FYI, the data here is from PubChem BioAssay (NCI).

# Test system: HCT-15 colon
# test_details: NCI-60 one-dose screen, 48 h (100 = growth as untreated, 0 = no growth, -100 = all killed)
# experimental_conditions: 10 µM unless noted
About 83,000 compounds went through this panel and 20% of them were active in at least one assay; those are over-represented in the sample as a whole.
Give growth for every item shown.
Give the number; % is assumed, so skip it.

**Q:** Please report the measured growth for COc1ccc(/C=N/OCC(O)CNCc2ccccc2)cc1OC1CCCC1 (stereo not drawn)
**A:** 102

**Q:** Given `Cc1nc2cc(Nc3nc(Nc4ccc(F)cc4)nc(N4CCN(C)CC4)n3)ccc2n1Cc1ccccc1` , respond with its growth.
**A:** -34.3

**Q:** Give the value of growth reported for the following: CCCCC1COc2cccc3c(SCC(=O)N(C)c4cccc5ccccc45)cc[n+]1c23 (stereo not drawn)
**A:** 94.3

**Q:** Look up and report measured growth for this entry: `O=C(O)C[C@H](O)C[C@H](O)/C=C/c1c(C2CC2)nc2ccccc2c1-c1ccc(F)cc1`
**A:** 46.5

**Q:** Supply reported growth belonging to this compound: `CCOc1ccc(-c2cnnn2-c2nonc2-n2cccc2)cc1`
**A:** 22.6

**Q:** Specify growth for `COc1ccc(-c2nc3sc(C)cn3c2/C=C/C(=O)c2cc(OC)c(OC)c(OC)c2)cc1` and stop.
**A:** 48.1

**Q:** Report growth, nothing else, for this compound: `Cc1cc(NS(=O)(=O)c2ccc(NC(=O)COc3ccc(-c4cc5ccccc5[nH]4)cc3)cc2)no1`
**A:** 24.7

**Q:** Please give measured growth of the following entry: `O=C1N/C(=C\c2ccccc2)c2ncccc21`
**A:** 101

**Q:** Return growth for the following compound: `O=C1c2c(c3c4cc(Br)ccc4[nH]c3c3ccc4ccccc4c23)C(=O)N1O`
**A:** 85.4

**Q:** Indicate the recorded growth value for this compound: `CC1=C(C/C=C(\C)CCC[C@H](C)CCC[C@H](C)CCCC(C)C)C(=O)c2ccccc2C1=O`
**A:** 104

**Q:** Entry `COc1ccc(OC2=CC(=O)c3ccc(C)nc3C2=O)cc1` needs its growth filled in; supply it.
**A:** 76.1

**Q:** Find the measured growth of `O=C(Nc1ccc(Cl)c(Cl)c1)OCn1ncc2ccc([N+](=O)[O-])cc21` and report it.
**A:** 84.9

**Q:** Name the recorded growth of the compound listed here: `CC1(C)N=C(N)N=C(N)N1c1cccc(/C=C/C=C/c2cccc([N+](=O)[O-])c2)c1`
**A:** 88.7

**Q:** Indicate the recorded growth value for this compound: `Nc1cc(Br)c(-c2nnc(CCC(=O)c3nc4ccccc4[nH]3)o2)c(Br)c1`
**A:** 104

**Q:** Determine its reported growth: O=C(N/N=C/c1ccc2c(c1)OCO2)c1cnn2c1NC(c1ccccc1)C2 (stereo not drawn)
**A:** 28

**Q:** Determine from records and report growth for `N#Cc1ccc(C(F)(F)F)nc1N1CCC(C(=O)Nc2ccc(Cl)cc2)CC1`
**A:** 43.9

**Q:** Report measured growth; entry is `Cc1ccc2c(N/N=C\c3ccco3)cc(C)nc2n1`
**A:** 36.6

**Q:** Query growth for `Cc1nc2cc(Nc3nc(Nc4ccc(F)cc4)nc(-c4cccs4)n3)ccc2n1Cc1ccccc1`
**A:** 30.3

**Q:** Find the measured growth of `CN(C)c1ccc(/C=C(\C#N)c2cc3ccccc3n2C)cc1` and report it.
**A:** 20.6

**Q:** Return value of growth for input `Cn1c2ccc(Cl)cc2c2nn(C(=O)c3ccccc3)c(=O)nc21` , no commentary.
**A:** 96.7

**Q:** Check the records and state growth for `CCCCC(CCCC)(S(=O)(=O)CC)S(=O)(=O)CC`
**A:** 97.7

**Q:** Give the reported value of growth for this record: `O=c1c2c(=NCCN3CCCC3)cc3c(=O)n(CCCN4CCOCC4)c(=O)c4c(-c5ccc(CN6CCCC6)cc5)cc(c(O)n1CCCN1CCOCC1)c2c4-3`
**A:** -30

**Q:** Give growth for the following compound: `COCCOC1=C(Cl)C(=O)c2ccccc2C1=O`
**A:** 13

---

# System: OVCAR-5 ovarian
# test_details: NCI-60 one-dose screen, 48 h (100 = growth as untreated, 0 = no growth, -100 = all killed)
# experimental_conditions: 10 µM unless noted
The panel holds about 83,000 compounds, 20% with a hit somewhere; the sample as a whole holds those more often.
Assign growth to each entry below.
Numbers only; they are read as %.

**Q:** Please give the documented growth of `Cc1c(NCC(=O)Nc2nc3ccccc3[nH]2)c(=O)n(-c2ccccc2)n1C`
**A:** 92.5

**Q:** Give a short answer stating reported growth for Cc1ccc(C2SCC(=O)N2NC(=O)c2[nH]c3ccc(F)cc3c2-c2ccccc2)cc1 (configuration not stated) .
**A:** 99.9

**Q:** For the molecule Oc1ccc2ccccc2c1C1NN=C(c2ccccc2)S1 (configuration not stated) , give its reported growth.
**A:** 43.2

**Q:** In one line, give reported growth of the entry `O=C1/C(=C/c2ccc(Oc3ccccc3)cc2)N=C(c2ccccc2)N1CCc1cccs1` .
**A:** 109

**Q:** Quick one: give measured growth for CC(C)(C)[Si](C)(C)OC1[C@@H](COC(N)=O)O[C@@H](n2cnc3c(N)ncnc32)[C@H]1O[Si](C)(C)C(C)(C)C (some centres not stated)
**A:** 99.2

**Q:** Recall and state the measured growth for O=C(NCc1ccc(F)cc1)C1CN(c2ccc(Cl)cc2)N(c2ccc(Cl)cc2)C1=O (configuration not stated) .
**A:** 85.6

**Q:** Determine from records and report growth for `Cc1ccc2nc(NC(=O)CSC(=S)N3CCN(C)CC3)sc2c1`
**A:** 105

**Q:** Kindly indicate its recorded growth. Item: `COc1ccc(OC2=CC(=O)c3ccc(C)nc3C2=O)cc1`
**A:** 114

**Q:** Give growth for `COc1ccc(/C=C2\CN(Cc3cn(CCCNc4ccnc5cc(Cl)ccc45)nn3)C/C(=C\c3ccc(OC)cc3)C2=O)cc1`
**A:** 120

**Q:** Fill in reported growth for this entry: `O=C(Nc1ccc(F)cc1)c1ccc(C(=O)Nc2ccc(F)cc2)cc1`
**A:** 101

**Q:** Tell us which growth value is on record for `COc1ccccc1CNCCCCCCCCCCCCN1C(=O)c2ccc3c4c(ccc(c24)C1=O)C(=O)N(CCCCCCCCCCCCNCc1ccccc1OC)C3=O`
**A:** 100

**Q:** Give me measured growth, please, for this molecule: CC[Si](CC)(CC)OC1[C@@H](O[Si](CC)(CC)CC)[C@@H](CNC(=O)NC)O[C@H]1n1cnc2c(NC(=O)Nc3ccccc3)ncnc21 (some centres not stated)
**A:** 93.6

---

# System: MDA-MB-435 melanoma
# test_details: NCI-60 one-dose screen, 48 h (100 = growth as untreated, 0 = no growth, -100 = all killed)
# experimental_conditions: 10 µM unless noted
About 83,000 compounds went through this panel and 20% of them were active in at least one assay; those are over-represented in the sample as a whole.
For each entry below, report its growth value.
Write it as a number; the unit % goes unstated.

**Q:** Quote growth reported for `O=C1c2ccccc2-c2nnc(-c3ccc(Br)cc3)cc21` please.
**A:** -69.1

**Q:** Give a short answer stating reported growth for COC(=O)/C=C1/CCC2C3CCC4=CC(=O)C(Br)CC4(C)C3C(=O)CC12C (centres undefined) .
**A:** 76.3

**Q:** For the molecule `NC(=O)c1nc2c([nH]c1=O)CCCC2` , give its measured growth value.
**A:** 113

**Q:** Indicate the recorded growth value for this molecule: `Cc1nc2cc(Nc3nc(NCCO)nc(Nc4ccc(F)cc4)n3)ccc2n1Cc1ccccc1`
**A:** 91.6

**Q:** State, in one line, measured growth of O=C(N/N=C/c1ccc(OC(F)F)c(OC2CCCC2)c1)c1cnn2c1NC(c1ccccc1)C2 (centres undefined)
**A:** 18

**Q:** # return recorded growth for entry `O=C(COc1ccc(/C=C2\CSc3ccccc3C2=O)cc1)c1ccc(Cl)cc1`
**A:** 95.6

**Q:** Give the reported value of growth for this record: O=C(NCc1ccc(F)cc1)C1CN(c2ccc(Cl)cc2)N(c2ccc(Cl)cc2)C1=O (centres undefined)
**A:** -21.8

**Q:** Indicate the recorded growth value for this molecule: COC(=O)C1C2CC3c4[nH]c5cc(OC)ccc5c4CCN3CC2CC(OC2CCCCO2)C1OC (centres undefined)
**A:** 101

**Q:** Item `COc1ccc(CSc2nc3cc(OC)c(OC)cc3c(=O)n2-c2ccc(Cl)cc2)cc1` : provide growth
**A:** 98

---

# Test system: A498 renal
# test_details: NCI-60 one-dose screen, 48 h (100 = growth as untreated, 0 = no growth, -100 = all killed)
# experimental_conditions: 10 µM unless noted
# Procedure: Growth inhibition of the A498 human tumor cell line is measured as a screen for anti-cancer activity. Cells are grown in 96 well plates and exposed to the test compound for 48 hours. Compounds are tested at a single concentration, which is 10^-5 M for most compounds. The reported endpoint is percent growth (GI% or GIPRCNT), where numbers from 0 - 100% represent growth inhibition, and numbers from -100% - 0 represent cell death. For example, a value of 40 represents 60% growth inhibition. […]
This is part of a sample that, as a whole, favours compounds with a hit. Of some 83,000 tested, about 20% had one in any assay.
Param label: returns TRUE when growth < 70%, returns FALSE otherwise, including exact equality.

**Q:** Identify whether the compound `O=C(CCc1nnc2sc(/C=C\c3ccccc3)nn12)c1nc2ccccc2[nH]1` records growth below 70%.
**A:** TRUE

**Q:** Please state whether growth is below 70% for `O=C(Nc1ccccc1O)c1ccc(NS(=O)(=O)c2cccc3cccnc23)cc1`
**A:** TRUE

**Q:** In plain terms, does `COc1nc2c(cc1S(=O)(=O)c1ccccc1)CCc1c-2cnn1-c1ccccc1` come in under 70% for growth?
**A:** TRUE

**Q:** Does the reported growth of the following compound sit strictly below 70%? `Nc1nc(N)c(N=Nc2c(Br)cc(S(N)(=O)=O)cc2Br)c(N)n1`
**A:** FALSE

**Q:** Hi there! Is growth for `Clc1ccc(C2=NN(c3ccccc3)[C@H](c3cn(-c4ccccc4)nc3-c3ccccc3)C2)cc1` below 70%, do you know?
**A:** FALSE

**Q:** Record `O=C(Nc1ccc(F)cc1)c1ccc(C(=O)Nc2ccc(F)cc2)cc1` : is its growth strictly below 70%?
**A:** FALSE

**Q:** Quick check: growth of `O=C1/C(=C/c2ccc(Cl)cc2)CN(Cc2cn(CCCNc3ccnc4cc(Cl)ccc34)nn2)C/C1=C\c1ccc(Cl)cc1` under 70%?
**A:** TRUE

**Q:** Is it true that growth reported for C[C@@H](Oc1cc(-c2cnn(C3CC4(CCCNC4)C3)c2)cnc1N)c1c(Cl)ccc(F)c1Cl (some centres not stated) is less than 70%?
**A:** TRUE

**Q:** is_below(growth, 70%) for `COc1cc2nc(SCc3cc(OC)c(OC)c(OC)c3)n(-c3ccccc3OC)c(=O)c2cc1OC` ?
**A:** TRUE

**Q:** Could you please tell me whether growth recorded for `O=c1onc(-c2ccccc2)c2ccccc12` is less than 70%?
**A:** FALSE

**Q:** Consider the compound `Cc1ccc(S(=O)(=O)N(c2ccc(Cl)cc2)c2ccc(Br)cc2C(=O)O)cc1` . Is its growth strictly less than 70%?
**A:** FALSE

**Q:** Would you kindly verify if growth of `O=c1[nH]c(-c2ccccn2)nc2sc3c(c12)CCCCCC3` is strictly less than 70%?
**A:** TRUE

**Q:** Check if growth falls below 70% for C=C(C)CCCC(C)CC#N (configuration not stated) .
**A:** FALSE

**Q:** Lab log: compare recorded growth with 70%; is it strictly lower for `COc1c(Cl)ccc2c(-c3nc4cc(Cl)c(F)cc4s3)cc(=O)oc12` ?
**A:** FALSE

**Q:** In the record for `Cc1ccc2c(c1)c(Sc1ccc(C(=O)NO)cc1)c1n2CN(C)CC1` , is growth less than 70%?
**A:** TRUE

**Q:** Is growth of `Cc1nn2c(-c3nc4ccc(Cl)cc4[nH]3)c(-c3ccc(F)cc3)nc2s1` strictly below 70%?
**A:** FALSE

**Q:** Given `CC(=O)Nc1ccc(Sc2ccc([N+](=O)[O-])o2)cc1` , is recorded growth strictly lower than 70%?
**A:** FALSE
